Biological target: recombinant human pancreatic GLK (Homo sapiens, UniProt P35557)
Construct: 6-His (N); made in house; host or cells: E. coli BL21
Sequence (P35557 1-465): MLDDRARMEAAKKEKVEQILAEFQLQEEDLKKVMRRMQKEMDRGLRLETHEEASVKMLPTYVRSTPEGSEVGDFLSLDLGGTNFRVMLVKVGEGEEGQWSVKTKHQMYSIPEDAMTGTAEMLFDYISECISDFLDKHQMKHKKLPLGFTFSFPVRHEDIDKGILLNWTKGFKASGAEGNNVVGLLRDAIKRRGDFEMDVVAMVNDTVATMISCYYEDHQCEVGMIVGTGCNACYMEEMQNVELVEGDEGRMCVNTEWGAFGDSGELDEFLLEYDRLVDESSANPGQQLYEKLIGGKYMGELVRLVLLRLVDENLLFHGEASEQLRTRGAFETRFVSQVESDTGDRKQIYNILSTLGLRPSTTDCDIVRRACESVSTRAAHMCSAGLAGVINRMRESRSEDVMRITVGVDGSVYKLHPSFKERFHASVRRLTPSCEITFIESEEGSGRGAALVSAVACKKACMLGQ
Assay: GKH4 variant of GLK enzymatic activity assay (automated end-point assay)
Format: biochemical
Details: activation of GLK; 10 nmol/l GLK; end-point at 10 minutes; no GLKRP
observable: EC50 (µM)

{"columns": ["compound", "unit", "EC50"],
 "data": [
  ["CN1CC[C@H](Oc2cc(Oc3ccc(C(=O)N4CCC4)nc3)cc(C(=O)Nc3ccccn3)c2)C1=O", "µM", 0.17],
  ["Cc1nsc(NC(=O)c2cc(Oc3cnc(C(=O)N(C)C)cn3)cc(O[C@H]3CCN(C)C3=O)c2)n1", "µM", 1.08]
]}

[1] Cc1cnc(NC(=O)c2cc(Oc3ccc4c(c3Cl)OCCN(C)C4=O)cc(O[C@H]3CCN(C)C3=O)c2)cn1
[2] Cc1cnc(NC(=O)c2cc(Oc3ccc(S(C)(=O)=O)nc3)cc(O[C@H]3CCN(C)C3=O)c2)cn1
Input line: Which has the higher EC50, 1 or 2 ? State the label of the item chosen.
Output line: 2
(2: 0.57 µM, 1: 0.08 µM)

[a] Cc1cnc(NC(=O)c2cc(Oc3ccc4c(c3)OCCN(C)C4=O)cc(O[C@H]3CCN(C)C3=O)c2)cn1
[b] Cc1cnc(NC(=O)c2cc(Oc3ccc4c(c3)OCCNS4(=O)=O)cc(O[C@H]3CCN(C)C3=O)c2)cn1
Input line: Lab log: flag the item ( a or b ) with the smaller EC50 figure. # answer = label of selected item
Output line: a
(a: 0.31 µM, b: 0.66 µM)

* * *

Molecular target: recombinant human pancreatic GLK (Homo sapiens, UniProt P35557)
Construct: 6-His (N); made in house; host or cells: E. coli BL21
Assay: GKH4 variant of GLK enzymatic activity assay (automated end-point assay)
Assay type: biochemical
Conditions: activation of GLK; 10 nmol/l GLK; end-point at 10 minutes; no GLKRP
pEC50: −log10 of the molar value.
observable: pEC50

Below: 2 compounds and their reported pEC50.
{"columns": ["compound", "pEC50"],
 "data": [
  ["Cc1cnc(NC(=O)c2cc(Oc3ccc(C(=O)N4CCC4)nc3)cc(O[C@H]3CCN(C4CC4)C3=O)c2)cn1 [Example 19]", 6.23],
  ["Cc1cnc(NC(=O)c2cc(Oc3ccc(C(=O)N4CCC4)nc3)cc(O[C@@H]3CCN(C4CCC4)C3=O)c2)cn1 [Example 20]", 6.05]
]}

[A] Cc1cnc(NC(=O)c2cc(Oc3ccc(C(=O)N(C)C)cc3Cl)cc(O[C@H]3CCN(C)C3=O)c2)cn1 [Example 26]
[B] Cc1cnc(NC(=O)c2cc(Oc3ccc(C(=O)N(C)C)nc3)cc(O[C@H]3CCN(C)C3=O)c2)cn1 [Example 29]
Input line: Parameter metric = pEC50. Return the lower-valued option from A and B . Response format: the label of the selected entry.
Output line: A
